assay: AUC (0 to infinity) in monkey at 1.35 mg/kg, iv administered as single dose; type: ADME, organism-based, Macaca mulatta; details: rhesus monkey, in vivo
measurementType: AUC(0-inf) (ng·h/mL)
Express it in ng·h/mL; write the number only.

# lookup: AUC(0-inf) of `COc1ncc(F)cc1CNc1ccc(Cc2c[nH]c3ncc(C)cc23)c(F)n1`
2100

* * *

target: CDK9/cyclin T1 (Homo sapiens, UniProt P50750); test: Inhibition of CDK9/CyclinT1 (unknown origin)
pIC50: −log10 of the molar value.
measurementType: pIC50

Which value of pIC50 has been reported for COc1ncc(F)cc1CNc1ccc(Cc2c[nH]c3ncc(C)cc23)c(F)n1 [PLX-5622] in the records?
< 6.00

* * *

molecular target: Serine/threonine-protein kinase pim-2 (Homo sapiens, UniProt Q9P1W9)
pIC50: −log10 of the molar value.
measurementType: pIC50

Find pIC50 (Serine/threonine-protein kinase pim-2 (Homo sapiens, UniProt Q9P1W9)) for the entry `COc1ncc(F)cc1CNc1ccc(Cc2c[nH]c3ncc(C)cc23)c(F)n1`
< 6.00

* * *

biological target: Cyclin-dependent kinase 5/CDK5 activator 1 (Homo sapiens, UniProt Q00535); experiment: Inhibition of CDK5_p35 (unknown origin); format: protein-complex assay
Sequence (Q00535 whole entry): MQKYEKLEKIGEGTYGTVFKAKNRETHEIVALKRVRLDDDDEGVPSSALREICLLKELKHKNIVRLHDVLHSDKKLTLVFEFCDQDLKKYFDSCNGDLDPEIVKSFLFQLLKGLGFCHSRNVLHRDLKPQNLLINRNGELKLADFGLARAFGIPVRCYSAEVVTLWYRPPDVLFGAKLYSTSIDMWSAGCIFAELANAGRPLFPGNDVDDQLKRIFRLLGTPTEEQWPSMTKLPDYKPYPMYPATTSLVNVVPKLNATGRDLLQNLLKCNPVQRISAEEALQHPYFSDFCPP
Sequence (Q15078 whole entry, further chain): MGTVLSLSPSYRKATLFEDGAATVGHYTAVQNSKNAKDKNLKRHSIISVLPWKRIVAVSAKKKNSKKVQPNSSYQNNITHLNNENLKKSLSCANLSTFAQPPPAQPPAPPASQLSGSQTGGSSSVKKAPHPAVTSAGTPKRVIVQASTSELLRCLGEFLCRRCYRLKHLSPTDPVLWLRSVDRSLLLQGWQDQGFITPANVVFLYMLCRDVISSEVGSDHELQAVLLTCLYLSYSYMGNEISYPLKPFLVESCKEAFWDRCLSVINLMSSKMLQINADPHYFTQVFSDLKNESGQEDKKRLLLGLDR
measurementType: IC50

So what's the measured IC50 for this one? `COc1ncc(F)cc1CNc1ccc(Cc2c[nH]c3ncc(C)cc23)c(F)n1`
> 1 µM

* * *

biological target: Interleukin-1 receptor-associated kinase 4 (Homo sapiens); experiment: Inhibition of IRAK4 (unknown origin)
Sequence (Q9NWZ3 whole entry): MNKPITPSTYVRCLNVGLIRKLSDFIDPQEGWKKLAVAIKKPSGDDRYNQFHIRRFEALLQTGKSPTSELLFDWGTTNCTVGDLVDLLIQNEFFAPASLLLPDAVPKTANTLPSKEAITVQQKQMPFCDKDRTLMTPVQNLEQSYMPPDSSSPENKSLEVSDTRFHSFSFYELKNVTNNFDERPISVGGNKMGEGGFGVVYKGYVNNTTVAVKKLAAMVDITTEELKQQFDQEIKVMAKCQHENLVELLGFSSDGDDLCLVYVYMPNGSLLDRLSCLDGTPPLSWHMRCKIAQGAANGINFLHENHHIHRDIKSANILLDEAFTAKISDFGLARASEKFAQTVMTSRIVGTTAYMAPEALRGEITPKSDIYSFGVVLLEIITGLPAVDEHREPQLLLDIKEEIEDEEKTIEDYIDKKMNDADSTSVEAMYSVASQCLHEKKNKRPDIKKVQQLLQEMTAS
pIC50: −log10 of the molar value.
measurementType: pIC50

Entry `COc1ncc(F)cc1CNc1ccc(Cc2c[nH]c3ncc(C)cc23)c(F)n1` : reported pIC50 = ?
< 6.00

* * *

molecular target: BDNF/NT-3 growth factors receptor (Homo sapiens, UniProt Q16620)
Sequence (Q16620 whole entry): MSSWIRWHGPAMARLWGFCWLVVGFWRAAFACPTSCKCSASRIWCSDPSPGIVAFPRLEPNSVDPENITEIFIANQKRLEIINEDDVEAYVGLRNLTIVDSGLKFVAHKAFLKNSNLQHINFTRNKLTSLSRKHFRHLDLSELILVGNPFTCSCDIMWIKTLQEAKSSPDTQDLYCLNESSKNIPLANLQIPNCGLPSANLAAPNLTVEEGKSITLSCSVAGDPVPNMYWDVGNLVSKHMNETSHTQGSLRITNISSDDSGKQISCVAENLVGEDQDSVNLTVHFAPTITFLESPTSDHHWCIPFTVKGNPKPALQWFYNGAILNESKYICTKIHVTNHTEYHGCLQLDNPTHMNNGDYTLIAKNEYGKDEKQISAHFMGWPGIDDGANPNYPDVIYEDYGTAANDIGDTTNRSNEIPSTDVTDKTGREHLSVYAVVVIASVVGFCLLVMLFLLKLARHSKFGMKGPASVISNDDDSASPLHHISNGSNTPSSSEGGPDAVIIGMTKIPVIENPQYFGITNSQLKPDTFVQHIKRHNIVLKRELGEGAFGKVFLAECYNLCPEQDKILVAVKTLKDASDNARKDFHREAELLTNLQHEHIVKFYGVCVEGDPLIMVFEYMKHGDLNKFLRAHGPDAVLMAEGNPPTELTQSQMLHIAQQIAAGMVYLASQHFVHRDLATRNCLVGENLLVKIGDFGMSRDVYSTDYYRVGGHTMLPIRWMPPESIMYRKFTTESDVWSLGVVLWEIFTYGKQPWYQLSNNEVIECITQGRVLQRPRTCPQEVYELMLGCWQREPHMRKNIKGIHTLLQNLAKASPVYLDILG
pIC50: −log10 of the molar value.
measurementType: pIC50

Lab note: need pIC50 for `COc1ncc(F)cc1CNc1ccc(Cc2c[nH]c3ncc(C)cc23)c(F)n1` on BDNF/NT-3 growth factors receptor (Homo sapiens, UniProt Q16620), anyone have it?
< 6.00

* * *

Biological target: Inhibitor of nuclear factor kappa-B kinase subunit epsilon (Homo sapiens, UniProt Q14164)
Sequence (Q14164 whole entry): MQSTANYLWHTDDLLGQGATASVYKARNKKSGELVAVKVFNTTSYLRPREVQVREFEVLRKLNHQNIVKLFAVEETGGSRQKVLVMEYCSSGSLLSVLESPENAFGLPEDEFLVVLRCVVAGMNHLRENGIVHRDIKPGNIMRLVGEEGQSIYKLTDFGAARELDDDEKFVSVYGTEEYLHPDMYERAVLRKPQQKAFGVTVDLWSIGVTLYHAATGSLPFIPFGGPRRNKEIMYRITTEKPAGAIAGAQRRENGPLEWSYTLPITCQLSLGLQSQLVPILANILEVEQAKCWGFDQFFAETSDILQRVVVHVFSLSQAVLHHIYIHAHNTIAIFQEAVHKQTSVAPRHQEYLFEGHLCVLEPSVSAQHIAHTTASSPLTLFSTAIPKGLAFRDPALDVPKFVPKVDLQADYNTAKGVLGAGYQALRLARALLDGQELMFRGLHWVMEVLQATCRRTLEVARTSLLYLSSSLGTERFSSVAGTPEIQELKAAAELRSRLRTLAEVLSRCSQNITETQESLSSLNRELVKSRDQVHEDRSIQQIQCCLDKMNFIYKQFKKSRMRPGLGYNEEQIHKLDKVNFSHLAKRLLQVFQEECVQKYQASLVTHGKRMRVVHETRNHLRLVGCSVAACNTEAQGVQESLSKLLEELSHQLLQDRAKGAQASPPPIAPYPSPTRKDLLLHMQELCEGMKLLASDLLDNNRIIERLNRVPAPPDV
Test: Inhibition of IKBKE (unknown origin)
pIC50: −log10 of the molar value.
measurementType: pIC50

Given the molecule COc1ncc(F)cc1CNc1ccc(Cc2c[nH]c3ncc(C)cc23)c(F)n1 [PLX-5622] , what is its reported pIC50?
< 6.00

* * *

Molecular target: Tyrosine-protein kinase receptor TYRO3 (Homo sapiens, UniProt Q06418)
Sequence (Q06418 whole entry): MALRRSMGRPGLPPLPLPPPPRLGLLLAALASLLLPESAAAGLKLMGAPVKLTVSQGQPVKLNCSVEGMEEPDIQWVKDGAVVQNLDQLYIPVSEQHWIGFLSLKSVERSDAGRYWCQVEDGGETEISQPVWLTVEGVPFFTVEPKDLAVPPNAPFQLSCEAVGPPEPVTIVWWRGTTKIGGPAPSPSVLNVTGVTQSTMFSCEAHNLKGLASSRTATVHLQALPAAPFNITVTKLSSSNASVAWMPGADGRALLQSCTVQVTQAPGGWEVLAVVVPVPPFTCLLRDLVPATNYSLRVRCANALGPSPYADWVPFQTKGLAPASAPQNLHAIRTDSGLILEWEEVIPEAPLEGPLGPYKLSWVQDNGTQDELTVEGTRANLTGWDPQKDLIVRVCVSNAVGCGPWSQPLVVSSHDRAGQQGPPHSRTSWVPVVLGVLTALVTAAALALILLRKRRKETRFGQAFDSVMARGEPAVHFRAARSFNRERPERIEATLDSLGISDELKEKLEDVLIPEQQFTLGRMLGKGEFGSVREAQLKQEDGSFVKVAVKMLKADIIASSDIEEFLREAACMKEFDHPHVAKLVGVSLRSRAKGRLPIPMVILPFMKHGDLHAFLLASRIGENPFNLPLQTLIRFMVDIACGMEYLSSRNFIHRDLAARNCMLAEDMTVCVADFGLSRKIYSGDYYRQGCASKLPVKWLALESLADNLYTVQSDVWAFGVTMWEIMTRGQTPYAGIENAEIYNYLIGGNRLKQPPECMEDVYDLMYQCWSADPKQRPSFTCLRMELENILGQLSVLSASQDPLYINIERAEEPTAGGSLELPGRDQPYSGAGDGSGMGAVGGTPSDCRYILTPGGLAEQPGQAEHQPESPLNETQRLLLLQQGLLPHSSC
measurementType: IC50

Request the reported IC50 associated with COc1ncc(F)cc1CNc1ccc(Cc2c[nH]c3ncc(C)cc23)c(F)n1 [PLX-5622]
> 1 µM

* * *

biological target: UniProt P17252
pIC50: −log10 of the molar value.
measurementType: pIC50

Value lookup for pIC50; key = COc1ncc(F)cc1CNc1ccc(Cc2c[nH]c3ncc(C)cc23)c(F)n1 [PLX-5622]
< 6.00

* * *

assay: Volume of distribution at steady state in mouse at 1.92 mg/kg, iv administered as single dose; assay type: ADME, organism-based; conditions: in vivo, read-out: Vdss
measurementType: Vd (L/kg)
Output spec: scalar in L/kg, unitless text.

Give its Vd value. Item: `COc1ncc(F)cc1CNc1ccc(Cc2c[nH]c3ncc(C)cc23)c(F)n1`
0.34

* * *

biological target: UniProt:P09619
Sequence (P09619 whole entry): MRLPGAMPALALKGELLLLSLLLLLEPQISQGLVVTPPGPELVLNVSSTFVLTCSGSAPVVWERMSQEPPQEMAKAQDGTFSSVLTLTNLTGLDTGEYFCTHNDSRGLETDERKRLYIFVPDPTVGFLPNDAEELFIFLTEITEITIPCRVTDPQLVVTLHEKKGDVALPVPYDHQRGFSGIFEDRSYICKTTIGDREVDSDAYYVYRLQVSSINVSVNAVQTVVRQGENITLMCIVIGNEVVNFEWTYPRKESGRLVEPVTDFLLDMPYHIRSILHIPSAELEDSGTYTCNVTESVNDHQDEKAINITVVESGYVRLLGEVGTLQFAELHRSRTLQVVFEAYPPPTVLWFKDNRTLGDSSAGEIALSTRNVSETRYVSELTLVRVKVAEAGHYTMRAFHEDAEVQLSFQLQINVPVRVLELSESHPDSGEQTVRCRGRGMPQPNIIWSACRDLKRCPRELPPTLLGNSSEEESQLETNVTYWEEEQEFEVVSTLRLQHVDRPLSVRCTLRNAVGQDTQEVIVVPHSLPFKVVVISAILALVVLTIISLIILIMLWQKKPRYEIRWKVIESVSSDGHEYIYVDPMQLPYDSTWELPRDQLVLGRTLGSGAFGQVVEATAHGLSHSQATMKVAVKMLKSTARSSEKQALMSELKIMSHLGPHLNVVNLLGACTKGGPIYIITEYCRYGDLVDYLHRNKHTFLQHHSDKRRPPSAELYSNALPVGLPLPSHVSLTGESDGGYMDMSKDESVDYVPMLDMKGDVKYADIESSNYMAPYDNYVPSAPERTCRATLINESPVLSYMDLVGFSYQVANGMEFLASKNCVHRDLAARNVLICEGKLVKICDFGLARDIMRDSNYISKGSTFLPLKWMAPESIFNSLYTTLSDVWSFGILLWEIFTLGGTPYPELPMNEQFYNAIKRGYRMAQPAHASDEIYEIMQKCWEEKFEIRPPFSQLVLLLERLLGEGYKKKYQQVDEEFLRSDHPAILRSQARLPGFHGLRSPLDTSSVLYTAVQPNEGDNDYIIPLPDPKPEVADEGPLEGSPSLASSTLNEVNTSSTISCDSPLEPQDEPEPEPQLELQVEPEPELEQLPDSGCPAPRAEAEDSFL
measurementType: IC50

What value of measured IC50 is listed for COc1ncc(F)cc1CNc1ccc(Cc2c[nH]c3ncc(C)cc23)c(F)n1 [PLX-5622] ?
> 1 µM

* * *

biological target: UniProt:P32298
Sequence (P32298 whole entry): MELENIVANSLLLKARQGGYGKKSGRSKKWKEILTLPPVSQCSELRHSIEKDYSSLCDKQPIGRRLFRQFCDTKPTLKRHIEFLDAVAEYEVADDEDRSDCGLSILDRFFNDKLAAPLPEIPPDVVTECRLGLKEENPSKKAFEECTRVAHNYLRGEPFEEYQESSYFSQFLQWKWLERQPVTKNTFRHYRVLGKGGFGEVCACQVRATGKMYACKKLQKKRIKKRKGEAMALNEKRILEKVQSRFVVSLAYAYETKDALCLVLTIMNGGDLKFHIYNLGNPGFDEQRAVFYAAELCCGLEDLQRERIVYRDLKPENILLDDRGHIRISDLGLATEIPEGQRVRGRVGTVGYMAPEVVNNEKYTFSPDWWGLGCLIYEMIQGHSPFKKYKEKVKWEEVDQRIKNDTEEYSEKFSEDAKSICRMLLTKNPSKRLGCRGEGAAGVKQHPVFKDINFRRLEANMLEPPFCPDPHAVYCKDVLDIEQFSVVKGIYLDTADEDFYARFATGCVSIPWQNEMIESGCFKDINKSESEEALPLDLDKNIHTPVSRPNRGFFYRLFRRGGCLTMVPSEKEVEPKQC
measurementType: IC50

Short answer please: IC50, UniProt:P32298, entry COc1ncc(F)cc1CNc1ccc(Cc2c[nH]c3ncc(C)cc23)c(F)n1 [PLX-5622]
> 1000 nM

* * *

experiment: AUC (0 to infinity) in dog at 1.00 mg/kg, iv administered as single dose; format: ADME, organism-based, Canis lupus familiaris; conditions: in vivo
measurementType: AUC(0-inf)

Consider the compound shown here: COc1ncc(F)cc1CNc1ccc(Cc2c[nH]c3ncc(C)cc23)c(F)n1 [PLX-5622] What is its recorded AUC(0-inf)?
6.23 µg·h/mL

* * *

molecular target: Homeodomain-interacting protein kinase 1 (Homo sapiens)
Sequence (Q86Z02 whole entry): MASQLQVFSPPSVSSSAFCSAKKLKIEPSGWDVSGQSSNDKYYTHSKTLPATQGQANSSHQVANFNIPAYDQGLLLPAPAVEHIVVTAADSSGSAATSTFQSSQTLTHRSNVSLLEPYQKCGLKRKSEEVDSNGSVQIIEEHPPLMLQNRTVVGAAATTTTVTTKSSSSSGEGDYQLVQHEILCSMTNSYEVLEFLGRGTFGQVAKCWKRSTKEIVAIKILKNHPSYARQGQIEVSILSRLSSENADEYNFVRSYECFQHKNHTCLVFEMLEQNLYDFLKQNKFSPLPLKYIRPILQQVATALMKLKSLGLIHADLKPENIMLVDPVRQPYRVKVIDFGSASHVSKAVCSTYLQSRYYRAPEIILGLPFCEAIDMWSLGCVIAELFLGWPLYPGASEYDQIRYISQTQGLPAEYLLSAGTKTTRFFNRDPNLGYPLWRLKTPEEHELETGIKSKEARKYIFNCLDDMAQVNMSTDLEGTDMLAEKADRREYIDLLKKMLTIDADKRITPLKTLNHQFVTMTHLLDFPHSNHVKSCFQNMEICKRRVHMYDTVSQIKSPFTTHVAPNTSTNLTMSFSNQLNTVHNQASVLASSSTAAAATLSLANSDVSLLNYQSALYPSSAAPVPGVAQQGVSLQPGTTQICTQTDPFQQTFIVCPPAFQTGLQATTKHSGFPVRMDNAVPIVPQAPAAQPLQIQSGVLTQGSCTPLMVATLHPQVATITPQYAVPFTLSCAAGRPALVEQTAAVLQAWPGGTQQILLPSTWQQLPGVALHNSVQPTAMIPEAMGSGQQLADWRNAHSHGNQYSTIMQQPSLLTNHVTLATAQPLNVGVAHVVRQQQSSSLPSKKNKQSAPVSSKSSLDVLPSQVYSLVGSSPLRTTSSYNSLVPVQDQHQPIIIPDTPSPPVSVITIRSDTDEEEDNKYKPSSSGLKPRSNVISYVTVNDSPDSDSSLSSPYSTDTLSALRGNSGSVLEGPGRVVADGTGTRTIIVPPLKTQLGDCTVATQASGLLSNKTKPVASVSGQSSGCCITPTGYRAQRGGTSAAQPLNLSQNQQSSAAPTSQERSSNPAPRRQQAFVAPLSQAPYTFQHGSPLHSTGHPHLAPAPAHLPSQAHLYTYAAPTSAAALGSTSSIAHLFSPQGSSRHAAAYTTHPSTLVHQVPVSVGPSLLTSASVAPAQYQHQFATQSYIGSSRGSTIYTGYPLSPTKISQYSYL
measurementType: IC50

Consider the molecule `COc1ncc(F)cc1CNc1ccc(Cc2c[nH]c3ncc(C)cc23)c(F)n1` and give its measured IC50.
> 1000 nM

* * *

biological target: UniProtKB P11362
measurementType: IC50

Give UniProtKB P11362 IC50 for `COc1ncc(F)cc1CNc1ccc(Cc2c[nH]c3ncc(C)cc23)c(F)n1`
> 1 µM

* * *

Quick list: Papp per entry.
assay: Permeability in human Caco-2 cells; assay type: ADME, cell-based; conditions: read-out: permeability
Hi! Could you send only the number? It should be in ×10⁻⁶ cm/s, unit omitted.

{"compound": "COc1ncc(F)cc1CNc1ccc(Cc2c[nH]c3ncc(C)cc23)c(F)n1 [PLX-5622]", "measured": 12.2}

Here is another compound to look at.
For the compound shown here, FC(F)(F)c1ccc(CNc2ccc(Cc3c[nH]c4ncc(Cl)cc34)cn2)cn1 [PEXIDARTINIB] , give the reported Papp.
1.4

* * *

experiment: Clearance in monkey at 1.35 mg/kg, iv administered as single dose; assay type: ADME, organism-based, Macaca mulatta; conditions: rhesus monkey, in vivo
measurementType: clearance (mL/min/kg)
Reply with just the number (in mL/min/kg).

Need clearance, item COc1ncc(F)cc1CNc1ccc(Cc2c[nH]c3ncc(C)cc23)c(F)n1 [PLX-5622]
11
